target: Bevacizumab (Homo sapiens, UniProt P01857); construct: fused on or other part: humanised anti-VEGF-A VH domain N-terminal of the gamma-1 constant region (engineered, no UniProt entry); assay: Langmuir isotherms by batch adsorption; format: binding, humanized; settings: Bevacizumab in PBS pH 7.3, 25° C., at least 3 h
The entries below are paired with their reported qm (maximum capacity, Langmuir isotherm).
measure_name: qm (maximum capacity, Langmuir isotherm) (mg per ml resin)

compound_smiles: C#Cc1cncc(C(=O)Nc2ccc(OC)c(C(=O)NCCCN)c2)c1
numeric_value: 33

compound_smiles: COc1ccc(NC(=O)c2nn(C)c3ccccc23)cc1C(=O)NCCCN
numeric_value: 33

compound_smiles: COc1ccc(NC(=O)c2cc(-c3ccco3)n(C)n2)cc1C(=O)NCCCN
numeric_value: 36

compound_smiles: COc1ccc(NC(=O)c2cncc(-c3ccoc3)c2)cc1C(=O)NCCCN
numeric_value: 29

compound_smiles: Cn1nc(C(=O)Nc2cccc(C(=O)NCCCN)c2)cc1-c1ccco1
numeric_value: 26

compound_smiles: COc1ccc(NC(=O)c2cncc(C3CC3)c2)cc1C(=O)NCCCN
numeric_value: 33

compound_smiles: COc1ccc(NC(=O)c2cncc(-c3ccco3)c2)cc1C(=O)NCCCN
numeric_value: 37
